Target: PI3Kβ (p110β/p85α) (Homo sapiens, UniProt P42338)
Sequence (P42338 whole entry): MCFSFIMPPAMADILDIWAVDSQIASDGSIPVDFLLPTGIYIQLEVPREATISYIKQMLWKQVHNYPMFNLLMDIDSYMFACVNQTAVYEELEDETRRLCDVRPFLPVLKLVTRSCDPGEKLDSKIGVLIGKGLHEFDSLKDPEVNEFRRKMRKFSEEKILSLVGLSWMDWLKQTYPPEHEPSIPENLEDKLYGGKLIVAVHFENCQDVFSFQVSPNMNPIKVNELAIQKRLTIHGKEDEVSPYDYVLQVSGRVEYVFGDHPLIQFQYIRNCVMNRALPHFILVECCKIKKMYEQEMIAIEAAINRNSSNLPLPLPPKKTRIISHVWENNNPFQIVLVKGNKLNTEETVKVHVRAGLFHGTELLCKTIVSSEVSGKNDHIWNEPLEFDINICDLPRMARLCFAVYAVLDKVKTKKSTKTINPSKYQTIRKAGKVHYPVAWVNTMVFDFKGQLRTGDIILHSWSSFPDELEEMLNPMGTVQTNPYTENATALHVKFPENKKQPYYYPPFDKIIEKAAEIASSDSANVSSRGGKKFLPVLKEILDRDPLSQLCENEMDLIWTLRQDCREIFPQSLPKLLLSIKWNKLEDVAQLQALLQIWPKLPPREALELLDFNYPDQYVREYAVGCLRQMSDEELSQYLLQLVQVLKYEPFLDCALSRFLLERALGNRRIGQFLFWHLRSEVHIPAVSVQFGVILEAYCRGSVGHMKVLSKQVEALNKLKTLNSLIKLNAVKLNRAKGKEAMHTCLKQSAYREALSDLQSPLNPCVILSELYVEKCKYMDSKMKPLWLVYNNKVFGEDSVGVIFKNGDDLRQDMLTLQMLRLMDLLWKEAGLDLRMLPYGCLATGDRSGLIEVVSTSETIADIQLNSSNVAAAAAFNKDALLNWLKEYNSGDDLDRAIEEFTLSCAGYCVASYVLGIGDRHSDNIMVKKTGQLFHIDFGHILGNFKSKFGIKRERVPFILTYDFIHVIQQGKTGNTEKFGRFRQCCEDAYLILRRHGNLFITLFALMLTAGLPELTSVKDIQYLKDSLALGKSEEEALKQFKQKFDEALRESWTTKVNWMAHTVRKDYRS
Sequence (P27986 whole entry partner): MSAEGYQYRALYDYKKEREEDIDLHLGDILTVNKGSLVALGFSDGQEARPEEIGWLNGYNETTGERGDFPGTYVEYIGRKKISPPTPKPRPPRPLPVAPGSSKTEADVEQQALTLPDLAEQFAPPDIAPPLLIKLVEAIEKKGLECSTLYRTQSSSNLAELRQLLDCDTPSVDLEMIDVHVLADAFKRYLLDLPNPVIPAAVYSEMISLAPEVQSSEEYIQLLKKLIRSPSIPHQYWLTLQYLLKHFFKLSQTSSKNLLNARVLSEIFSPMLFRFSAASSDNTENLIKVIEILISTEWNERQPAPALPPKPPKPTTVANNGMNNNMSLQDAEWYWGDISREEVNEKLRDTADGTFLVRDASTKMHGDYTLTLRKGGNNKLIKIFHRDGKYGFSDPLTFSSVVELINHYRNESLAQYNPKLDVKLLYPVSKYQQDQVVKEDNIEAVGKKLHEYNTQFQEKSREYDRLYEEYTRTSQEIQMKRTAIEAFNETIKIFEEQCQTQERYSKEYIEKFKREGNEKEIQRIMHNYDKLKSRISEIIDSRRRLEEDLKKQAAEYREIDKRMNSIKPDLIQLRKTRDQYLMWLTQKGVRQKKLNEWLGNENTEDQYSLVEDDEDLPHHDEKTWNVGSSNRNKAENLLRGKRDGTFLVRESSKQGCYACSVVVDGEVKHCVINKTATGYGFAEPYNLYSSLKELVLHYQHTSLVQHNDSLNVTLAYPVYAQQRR
Assay: In vitro PI3K kinase assay (PI3-Kinase Activity ELISA)
Settings: PI3-Kinase Activity ELISA, incubated 30 min at room temperature
measurementLabel: IC50 (nM)
Express it in nM; write the number only.

What the record says about Cc1cc2c(cc1C)[n+](Cc1ccccc1Br)cn2Cc1ccc2c(c1)CCO2.[Br-] : IC50 is 364

###

Target: UniProt:Q04759
measurementLabel: IC50

Measured IC50 for this entry Cc1cc2c(cc1C)[n+](Cc1ccccc1Br)cn2Cc1ccc2c(c1)CCO2.[Br-] on UniProt:Q04759: > 500 µM

###

Target: PDGFRA (PDGFR alpha) (Homo sapiens, UniProt P16234)
measurementLabel: IC50

Measured IC50 for this entry Cc1cc2c(cc1C)[n+](Cc1ccccc1Br)cn2Cc1ccc2c(c1)CCO2.[Br-] [B591] on PDGFRA (PDGFR alpha) (Homo sapiens, UniProt P16234): > 500 µM

###

Target: AMPK A1/B1/G1 (Homo sapiens, UniProt P54619+Q13131+Q9Y478)
Sequence (Q13131 whole entry): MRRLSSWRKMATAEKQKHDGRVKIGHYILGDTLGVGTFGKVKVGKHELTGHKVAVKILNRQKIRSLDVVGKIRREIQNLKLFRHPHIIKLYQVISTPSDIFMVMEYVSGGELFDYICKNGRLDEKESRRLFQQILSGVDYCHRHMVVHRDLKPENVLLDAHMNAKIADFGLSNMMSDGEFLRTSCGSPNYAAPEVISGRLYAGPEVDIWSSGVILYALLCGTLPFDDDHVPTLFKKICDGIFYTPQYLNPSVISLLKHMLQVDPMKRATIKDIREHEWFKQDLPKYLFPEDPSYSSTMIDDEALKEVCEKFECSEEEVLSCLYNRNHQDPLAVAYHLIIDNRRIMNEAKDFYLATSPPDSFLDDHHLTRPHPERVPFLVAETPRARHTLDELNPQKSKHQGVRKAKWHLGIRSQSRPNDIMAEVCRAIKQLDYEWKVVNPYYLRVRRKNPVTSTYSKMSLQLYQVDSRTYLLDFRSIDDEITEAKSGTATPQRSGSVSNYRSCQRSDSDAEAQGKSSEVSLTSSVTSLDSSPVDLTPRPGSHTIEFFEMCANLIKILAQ
Sequence (Q9Y478 whole entry partner): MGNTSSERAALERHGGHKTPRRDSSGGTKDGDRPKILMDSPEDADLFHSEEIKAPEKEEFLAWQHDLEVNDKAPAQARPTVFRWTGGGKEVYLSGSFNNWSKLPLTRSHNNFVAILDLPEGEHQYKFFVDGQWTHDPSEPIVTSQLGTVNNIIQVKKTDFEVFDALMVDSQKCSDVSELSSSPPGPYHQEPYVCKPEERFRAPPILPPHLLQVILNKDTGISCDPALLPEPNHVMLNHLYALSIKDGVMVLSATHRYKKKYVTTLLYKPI
Sequence (P54619 whole entry partner): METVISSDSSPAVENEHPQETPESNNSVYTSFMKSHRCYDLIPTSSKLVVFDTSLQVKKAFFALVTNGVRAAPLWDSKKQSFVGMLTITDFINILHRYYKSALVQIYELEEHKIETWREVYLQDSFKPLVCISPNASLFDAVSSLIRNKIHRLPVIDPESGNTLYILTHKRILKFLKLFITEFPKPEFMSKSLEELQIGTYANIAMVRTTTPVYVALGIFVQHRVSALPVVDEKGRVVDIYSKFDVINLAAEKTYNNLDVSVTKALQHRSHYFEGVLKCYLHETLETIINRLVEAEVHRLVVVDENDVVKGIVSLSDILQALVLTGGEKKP
Experiment: Biochemical kinase profiling (Life Technologies)
pIC50: −log10 of the molar value.
measurementLabel: pIC50

Measured pIC50 for this entry Cc1cc2c(cc1C)[n+](Cc1ccccc1Br)cn2Cc1ccc2c(c1)CCO2.[Br-] on AMPK A1/B1/G1 (Homo sapiens, UniProt P54619+Q13131+Q9Y478): < 3.30

###

Molecular target: LYN A (Homo sapiens, UniProt P07948)
Sequence (P07948 whole entry): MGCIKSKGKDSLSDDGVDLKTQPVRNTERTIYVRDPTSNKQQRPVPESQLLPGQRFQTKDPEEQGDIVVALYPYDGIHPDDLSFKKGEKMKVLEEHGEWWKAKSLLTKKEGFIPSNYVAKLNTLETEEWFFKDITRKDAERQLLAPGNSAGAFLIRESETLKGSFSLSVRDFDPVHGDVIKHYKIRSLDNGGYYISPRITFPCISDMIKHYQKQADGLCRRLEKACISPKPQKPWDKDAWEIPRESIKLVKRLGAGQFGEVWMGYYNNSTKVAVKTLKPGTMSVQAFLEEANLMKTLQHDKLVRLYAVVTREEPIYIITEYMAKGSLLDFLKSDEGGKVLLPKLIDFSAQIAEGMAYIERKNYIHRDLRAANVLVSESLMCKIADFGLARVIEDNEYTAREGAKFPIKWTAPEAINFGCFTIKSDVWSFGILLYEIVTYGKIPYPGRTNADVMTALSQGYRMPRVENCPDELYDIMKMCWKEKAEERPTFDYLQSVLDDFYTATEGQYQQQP
pIC50: −log10 of the molar value.
measurementLabel: pIC50

Measured pIC50 for this entry Cc1cc2c(cc1C)[n+](Cc1ccccc1Br)cn2Cc1ccc2c(c1)CCO2.[Br-] [B591] on LYN A (Homo sapiens, UniProt P07948): < 3.30

###

Target: GSK3A (GSK3 alpha) (Homo sapiens)
Sequence (P49840 whole entry): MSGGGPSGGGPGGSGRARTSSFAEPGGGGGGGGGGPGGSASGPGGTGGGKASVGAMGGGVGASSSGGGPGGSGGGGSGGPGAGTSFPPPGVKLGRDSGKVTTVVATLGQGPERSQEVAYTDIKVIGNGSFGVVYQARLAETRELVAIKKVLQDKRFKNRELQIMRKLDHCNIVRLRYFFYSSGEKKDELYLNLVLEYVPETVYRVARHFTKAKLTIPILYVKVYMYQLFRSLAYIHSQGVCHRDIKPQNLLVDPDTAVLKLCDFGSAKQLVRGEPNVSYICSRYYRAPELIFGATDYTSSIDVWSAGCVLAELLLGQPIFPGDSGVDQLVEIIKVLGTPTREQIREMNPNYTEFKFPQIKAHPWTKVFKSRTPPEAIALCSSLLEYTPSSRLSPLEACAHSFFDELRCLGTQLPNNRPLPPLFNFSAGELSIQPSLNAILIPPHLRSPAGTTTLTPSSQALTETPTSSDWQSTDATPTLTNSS
pIC50: −log10 of the molar value.
measurementLabel: pIC50

Measured pIC50 for this entry Cc1cc2c(cc1C)[n+](Cc1ccccc1Br)cn2Cc1ccc2c(c1)CCO2.[Br-] [B591] on GSK3A (GSK3 alpha) (Homo sapiens): < 3.30

###

Target: FGFR2 (Homo sapiens)
Sequence (P21802 22-821): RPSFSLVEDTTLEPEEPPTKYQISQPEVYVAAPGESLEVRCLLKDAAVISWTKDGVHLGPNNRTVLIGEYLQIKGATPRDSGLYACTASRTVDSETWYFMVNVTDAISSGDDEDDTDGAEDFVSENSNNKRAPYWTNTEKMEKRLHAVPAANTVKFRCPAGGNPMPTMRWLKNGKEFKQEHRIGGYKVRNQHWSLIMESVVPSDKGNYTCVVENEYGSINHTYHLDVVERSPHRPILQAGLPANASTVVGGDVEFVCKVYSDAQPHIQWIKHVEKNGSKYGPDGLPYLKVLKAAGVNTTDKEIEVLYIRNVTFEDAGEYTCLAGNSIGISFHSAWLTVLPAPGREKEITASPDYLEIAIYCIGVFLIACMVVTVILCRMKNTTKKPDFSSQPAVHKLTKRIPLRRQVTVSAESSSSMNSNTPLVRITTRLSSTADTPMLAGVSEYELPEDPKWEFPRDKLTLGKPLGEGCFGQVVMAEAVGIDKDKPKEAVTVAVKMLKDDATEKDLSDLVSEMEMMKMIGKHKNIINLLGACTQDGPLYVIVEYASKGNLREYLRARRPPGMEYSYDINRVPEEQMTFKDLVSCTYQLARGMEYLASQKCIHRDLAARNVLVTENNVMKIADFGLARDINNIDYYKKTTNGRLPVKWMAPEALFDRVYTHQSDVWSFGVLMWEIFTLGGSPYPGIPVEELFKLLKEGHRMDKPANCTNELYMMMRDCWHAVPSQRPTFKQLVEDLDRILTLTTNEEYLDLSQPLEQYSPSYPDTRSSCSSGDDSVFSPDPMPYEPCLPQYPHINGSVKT
measurementLabel: IC50

What the record says about Cc1cc2c(cc1C)[n+](Cc1ccccc1Br)cn2Cc1ccc2c(c1)CCO2.[Br-] [B591] : IC50 is > 500 µM

###

Target: PI3Kδ (p110δ/p85α) (Homo sapiens)
Assay: In vitro PI3K kinase assay (PI3-Kinase Activity ELISA)
Settings: incubated 30 min at room temperature
measurementLabel: IC50 (nM)
Express it in nM; write the number only.

Measured IC50 for this entry Cc1cc2c(cc1C)[n+](Cc1ccccc1Br)cn2Cc1ccc2c(c1)CCO2.[Br-] [B591] on PI3Kδ (p110δ/p85α) (Homo sapiens): 1580

###

Target: UniProt:P06241
pIC50: −log10 of the molar value.
measurementLabel: pIC50

Measured pIC50 for this entry Cc1cc2c(cc1C)[n+](Cc1ccccc1Br)cn2Cc1ccc2c(c1)CCO2.[Br-] on UniProt:P06241: < 3.30

###

Molecular target: AMPK A2/B1/G1 (Homo sapiens, UniProt P54619+P54646+Q9Y478)
Test: Biochemical kinase profiling (Life Technologies)
measurementLabel: IC50

What the record says about Cc1cc2c(cc1C)[n+](Cc1ccccc1Br)cn2Cc1ccc2c(c1)CCO2.[Br-] [B591] : IC50 is > 500 µM
